- target.desc: SARS-CoV-2 RBD.mmh (Spike amino acids Arg319-Phe541 with C-terminal myc-myc-6-Histidine tag) (SARS-CoV-2, UniProt P0DTC2 319-541)
pIC50: −log10 of the molar value.
# binarize pIC50: threshold 9 inclusive, high side 1, low side -1

Worked examples, 4 binders total:
Incoming: API: above_or_equal(metric=pIC50, cutoff=9) for item mAb13459 (antibody, V domains shown) VH: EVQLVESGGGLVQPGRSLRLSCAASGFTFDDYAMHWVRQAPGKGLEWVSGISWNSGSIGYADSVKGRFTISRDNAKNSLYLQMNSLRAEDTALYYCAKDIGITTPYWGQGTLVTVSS VL: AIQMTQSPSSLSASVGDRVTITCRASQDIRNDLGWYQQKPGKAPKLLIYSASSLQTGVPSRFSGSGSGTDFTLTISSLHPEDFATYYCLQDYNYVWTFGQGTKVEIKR
Outgoing: -1

Incoming: Same question for mAb15163 (antibody, V domains shown) VH: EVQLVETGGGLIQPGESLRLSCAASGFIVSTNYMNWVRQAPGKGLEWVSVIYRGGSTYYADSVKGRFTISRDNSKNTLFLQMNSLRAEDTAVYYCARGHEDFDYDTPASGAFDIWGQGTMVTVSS VL: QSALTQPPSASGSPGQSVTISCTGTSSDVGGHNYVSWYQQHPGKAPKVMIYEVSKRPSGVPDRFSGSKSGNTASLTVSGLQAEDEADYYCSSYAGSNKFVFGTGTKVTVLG please.
Outgoing: 1

Incoming: Same question for mAb15157 (antibody, V domains shown) VH: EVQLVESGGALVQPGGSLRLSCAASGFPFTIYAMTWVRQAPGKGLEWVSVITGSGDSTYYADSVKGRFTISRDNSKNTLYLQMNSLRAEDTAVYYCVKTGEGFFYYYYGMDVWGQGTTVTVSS VL: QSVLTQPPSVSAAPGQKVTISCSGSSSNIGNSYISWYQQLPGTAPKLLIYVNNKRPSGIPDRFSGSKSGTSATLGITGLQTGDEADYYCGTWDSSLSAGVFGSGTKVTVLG please.
Outgoing: 1

Incoming: Same question for mAb14256 (antibody, V domains shown) VH: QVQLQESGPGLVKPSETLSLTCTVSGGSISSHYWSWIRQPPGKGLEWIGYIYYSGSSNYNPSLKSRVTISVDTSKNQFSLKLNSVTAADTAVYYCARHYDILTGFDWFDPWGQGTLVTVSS VL: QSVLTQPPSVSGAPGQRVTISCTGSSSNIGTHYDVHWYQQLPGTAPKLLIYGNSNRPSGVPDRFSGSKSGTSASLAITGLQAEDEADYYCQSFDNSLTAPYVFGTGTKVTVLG please.
Outgoing: 1

Next:
Incoming: API: above_or_equal(metric=pIC50, cutoff=9) for item mAb14235 (antibody, V domains shown) VH: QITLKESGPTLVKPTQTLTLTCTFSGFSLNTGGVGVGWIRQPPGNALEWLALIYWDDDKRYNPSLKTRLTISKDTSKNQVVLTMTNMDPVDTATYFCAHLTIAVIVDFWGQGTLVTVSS VL: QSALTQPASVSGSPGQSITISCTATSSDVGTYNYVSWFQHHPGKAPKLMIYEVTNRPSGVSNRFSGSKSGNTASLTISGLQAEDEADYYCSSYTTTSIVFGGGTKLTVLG
Outgoing: 1
